// data source = PubChem BioAssay (NCI)

Tested on: NCI-H226 lung
Assay: NCI tumour cell line growth inhibition, 48 h
READOUT_KIND: TGI

COMPOUND	TARGET_SYSTEM	TGI
O=c1c2cc(O)c(O)cc2oc2cc(O)c(C3OC(CO)C(O)C(O)C3O)c(O)c12 (centres undefined)	NCI-H226 lung	> 100 µM

For CC1C(=O)C(C)C(c2ccco2)N(N=O)C1c1ccco1 (centres undefined) , write its TGI.
> 100 µM

Identify TGI associated with the compound COc1ccc2c(c1)/C(=C\c1c(Cl)n(-c3ccccc3)c3ccccc13)C(=O)N2
24.5 µM

Recall and state the measured TGI for Fc1ccc(-c2nn3c(COc4ccc(Cl)cc4Cl)nnc3s2)cc1Oc1ccccc1 .
74 µM

Answer with the recorded TGI of COc1cc([N+](=O)[O-])ccc1NC(=O)c1cccc([N+](=O)[O-])c1O only.
> 100 µM

Answer with the recorded TGI for the compound listed here: Cc1cc(N)cc(C)c1-c1c(Br)cc(N)cc1Br
> 100 µM

Please report the measured TGI for CCOC(=O)CC(NCc1ccc(N=Cc2nc3ccc(C(F)(F)F)cc3nc2-c2ccccc2)cc1)C(=O)OCC (centres undefined)
> 100 µM

Give a short answer stating reported TGI for O=c1c2n[nH]nc2nc2n1CC(c1ccccc1)S2 (centres undefined) .
> 100 µM

Input NC(=O)c1cc([N+](=O)[O-])cc([N+](=O)[O-])c1 , output reported TGI.
> 100 µM

Provide measured TGI value, entry: Cc1ccc(/C=C2\NC(=S)N(CN3CCCCC3)C2=O)cc1
> 100 µM

Item COc1ccc2nc3cc(Cl)ccc3c(Nc3cc(C(C)C)c(O)cc3C)c2c1 : provide TGI
6.64 µM

Recall and state the measured TGI for FC(F)(F)c1ccc(NCc2nc3ccccc3[nH]2)cc1 .
> 100 µM

Please look at this compound and report its TGI: CNCCNc1nc2ccccc2c2c(=O)c3cccc(C)c3sc12
16.7 µM

* * *

System: RXF 393 renal
Assay: NCI tumour cell line growth inhibition, 48 h
READOUT_KIND: TGI (µM)
Value expressed in µM; do not type the unit.

>>> df
                                   molecule  readout_kind  unit_string  value_observed
0  Cc1cc(C#Cc2ccccc2)ccc1-n1c(/C=C/c2cc(O)ccc2O)nc2ccccc2c1=O           TGI           µM            3.72
1  C#Cc1ccc(-n2c(/C=C/c3ccc4ccccc4c3)nc3ncccc3c2=O)cc1           TGI           µM            5.47
2  CC(C)COC(c1ccc2c(c1)OCO2)C(C)Br (stereo not given)           TGI           µM            23.2

Note: attention shifts to another entry.
Provide one value: measured TGI of O=C1/C(=C/c2ccccc2[N+](=O)[O-])COc2ccc(O)c(O)c21
1.46

* * *

Overview of reported GI50 across a group of compounds:
Tested on: HCT-116 colon
Assay: NCI tumour cell line growth inhibition, 48 h

                                   compound  readout_kind  value_observed
0  CC[C@@]1(O)C(=O)NCc2c1cc1n(c2=O)Cc2cc3c(NC(C)=O)cccc3nc2-1          GI50        > 100 µM
1  Cn1cc(C2=C(c3c(S(C)=O)n(C)c4ccccc34)C(=O)NC2=O)c2ccccc21 (centres undefined)          GI50         8.57 µM
2  O=C(CSc1ncc(-c2ccccc2)n1-c1ccccc1)Nc1ccc(-c2nc3ccccc3s2)cc1          GI50         3.68 µM
3  CC(C)[C@H](C(=O)O[C@@H]1/C=C/C(=O)O[C@@H](C)CCC/C=C/[C@@H]2C[C@H](O)C[C@H]21)N(C)C          GI50         14.5 µM
4  N=C1/C(=C2\Nc3ccccc3S2)CC(=O)N1c1ccc(SC(F)F)cc1          GI50         8.89 µM
5  Fc1ccc(C2C3CCOc4c(ccc5ccccc45)C3=NN2c2ccccc2)cc1 (centres undefined)          GI50       > 86.2 µM

Query GI50 for O=C(c1ccco1)c1c(C(F)(F)F)n([O-])c2ccc(F)cc2[n+]1=O
0.824 µM

Identify measured GI50 corresponding to Fc1ccc(-c2c(-c3ccncc3)[nH]c3nccnc23)cc1
6.39 µM

Write down GI50 measured for item COc1cc(-c2nn(-c3cccc(NC(=O)CCN4CCN(C)CC4)c3)cc2-c2ccncc2)ccc1Cl
0.904 µM
